- Test Target: T1, AMHRII receptor expressed on cells (cov434-AMHRII, Asc 1, META 2815) (human, UniProt Q16671 18-573)
- T1 sequence (looked up): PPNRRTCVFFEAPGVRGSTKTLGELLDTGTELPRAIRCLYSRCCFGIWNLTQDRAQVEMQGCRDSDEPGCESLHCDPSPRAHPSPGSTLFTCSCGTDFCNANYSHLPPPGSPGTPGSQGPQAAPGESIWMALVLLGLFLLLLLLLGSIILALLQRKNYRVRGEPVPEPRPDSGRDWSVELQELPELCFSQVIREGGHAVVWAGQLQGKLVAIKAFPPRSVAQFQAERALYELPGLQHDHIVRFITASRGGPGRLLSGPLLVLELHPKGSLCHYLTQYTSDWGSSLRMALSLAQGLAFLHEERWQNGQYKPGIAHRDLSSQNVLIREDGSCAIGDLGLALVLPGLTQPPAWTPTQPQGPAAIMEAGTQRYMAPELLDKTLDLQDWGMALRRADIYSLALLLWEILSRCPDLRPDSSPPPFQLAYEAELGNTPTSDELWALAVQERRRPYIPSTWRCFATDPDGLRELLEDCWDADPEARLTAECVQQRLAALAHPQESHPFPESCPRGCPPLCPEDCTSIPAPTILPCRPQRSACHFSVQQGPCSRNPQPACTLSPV
- Test Protocol: cell-based or functional assay
Quantity Name: % of lysis of ASC1 cells (ADCC with NK cells, LDH release) at 500 ng/ml antibody (%)
The response must be a number in % with no trailing unit.

q: Consider the binder mutated humanized 12G4 antibody 3C-23 produced in YB2/0 (antibody, human IgG1, kappa, V domains shown, Chains without leader; Mutations VH-Q3R, VL-I177T/S179P; also called 3C_23 YB2/0; R901 3C23) VH: QVRLVQSGAEVKKPGASVKVSCKASGYTFTSYHIHWVRQAPGQRLEWMGWIYPGDDSTKYSQKFQGRVTITRDTSASTAYMELSSLRSEDTAVYYCTRGDRFAYWGQGTLVTVSS VL: DIQMTQSPSTLSASVGDRVTITCRASSSVRYIAWYQQKPGKAPKLLTYPTSSLESGVPSRFSGSGSGTEFTLTISSLQPDDFATYYCLQWSSYPWTFGGGTKVEIKR and give its measured % of lysis of ASC1 cells (ADCC with NK cells, LDH release) at 500 ng/ml antibody.
a: 52
